Value source: patent US20240158418A1

# targetEntity: pY1068 EGFR L858R (Homo sapiens, UniProt P00533, L858R)
# Construct: NCI-H3255 (harboring EGFR heterozygous L858R mutation); host or cells: NCI-H3255
# Sequence (P00533 25-1210 L858R): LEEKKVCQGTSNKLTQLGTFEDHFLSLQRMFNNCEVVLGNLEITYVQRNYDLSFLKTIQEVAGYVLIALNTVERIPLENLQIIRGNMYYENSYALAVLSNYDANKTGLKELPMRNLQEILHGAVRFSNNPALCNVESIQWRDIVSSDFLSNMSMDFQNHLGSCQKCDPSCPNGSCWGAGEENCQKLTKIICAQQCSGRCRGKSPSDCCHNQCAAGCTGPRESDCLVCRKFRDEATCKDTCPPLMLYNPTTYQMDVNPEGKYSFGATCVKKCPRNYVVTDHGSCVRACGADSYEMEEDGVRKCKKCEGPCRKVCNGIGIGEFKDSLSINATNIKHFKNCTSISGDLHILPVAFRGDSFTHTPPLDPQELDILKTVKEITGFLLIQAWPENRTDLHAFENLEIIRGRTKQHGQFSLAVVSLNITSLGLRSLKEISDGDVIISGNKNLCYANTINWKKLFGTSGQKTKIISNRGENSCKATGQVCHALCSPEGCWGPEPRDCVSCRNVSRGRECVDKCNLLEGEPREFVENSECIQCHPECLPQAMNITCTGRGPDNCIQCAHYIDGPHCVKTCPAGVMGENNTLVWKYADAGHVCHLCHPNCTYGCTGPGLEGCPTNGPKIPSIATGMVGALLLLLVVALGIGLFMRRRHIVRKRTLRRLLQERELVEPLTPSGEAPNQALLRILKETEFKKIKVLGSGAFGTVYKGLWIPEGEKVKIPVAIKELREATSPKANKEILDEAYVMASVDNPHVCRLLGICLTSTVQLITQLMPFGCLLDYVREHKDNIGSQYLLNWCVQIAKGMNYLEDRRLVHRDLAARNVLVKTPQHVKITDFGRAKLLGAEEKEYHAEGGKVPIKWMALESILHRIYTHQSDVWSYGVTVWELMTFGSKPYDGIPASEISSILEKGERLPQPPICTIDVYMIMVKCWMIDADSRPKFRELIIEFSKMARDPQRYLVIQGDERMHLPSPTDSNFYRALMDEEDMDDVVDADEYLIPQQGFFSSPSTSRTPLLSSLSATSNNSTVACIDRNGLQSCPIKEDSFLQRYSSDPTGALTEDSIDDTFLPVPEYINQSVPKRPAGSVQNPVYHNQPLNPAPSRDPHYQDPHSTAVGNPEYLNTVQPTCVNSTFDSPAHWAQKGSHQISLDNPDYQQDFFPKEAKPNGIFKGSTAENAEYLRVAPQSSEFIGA
# testMethodNotes: Phospho-EGFR (pY1068) inhibition HTRF, NCI-H3255
# Assay type: cell-based
# experimentalParameters: 6 hours, read-out: pEGFR IC50
# Experimental: NCI-H1975 (harboring EGFR heterozygous L858R-T790M mutations) and NCI-H3255 (harboring EGFR heterozygous L858R mutation) were purchased from ATCC and NCI, respectively. […] Degradation of EGFR protein containing L858R mutation or wild-type was determined based on quantification of FRET signal using a Total EGFR (L858R-specific or pan-EGFR detecting) HTRF assay kit. Phospho-EGFR (pEGFR) inhibition was determined based on quantification of FRET signal using a pY1068 EGFR HTRF assay kit. […]
pIC50: −log10 of the molar value.
observationType: pIC50

- compound: "Cn1nc(N2CCC(=O)NC2=O)c2ccc(C3CCN(CC(=O)N4CC5(C4)CN(c4ccc(-c6cc(F)c7c(c6)C(=O)N(C(C(=O)Nc6ccccn6)c6ncn8c6CCC8)C7)cc4)C5)CC3(F)F)cc21 (centres unmarked)"
  value: 7.72
- compound: "Cn1nc(N2CCC(=O)NC2=O)c2ccc([C@H]3CCN(CC(=O)N4CC5(C4)CN(c4ccc(-c6cc(F)c7c(c6)C(=O)N(C(C(=O)Nc6nccs6)c6ncn8c6CCC8)C7)cc4)C5)CC3(F)F)cc21 (some centres unmarked)"
  value: 8.10
- compound: "O=C1CCC(Nc2ccc(C3CCN(CC(=O)N4CC5(C4)CN(c4ccc(-c6cc(F)c7c(c6)C(=O)N(C(C(=O)Nc6nccs6)c6ncn8c6CCC8)C7)cc4)C5)CC3(F)F)cc2)C(=O)N1 (single isomer, unassigned)"
  value: 7.80
- compound: "Cn1nc(N2CCC(=O)NC2=O)c2ccc(C3CCN(CC(=O)N4CC5(C4)CN(c4ccc(-c6cc(F)c7c(c6)C(=O)N(C(C(=O)Nc6nccs6)c6ncn8c6CCC8)C7)cc4)C5)CC3(F)F)cc21 (centres unmarked)"
  value: 8.10
- compound: "O=C1CC[C@H](Nc2ccc(N3CCC(O)(CC(=O)N4CC5(C4)CN(c4ccc(-c6cc(F)c7c(c6)C(=O)N(C(C(=O)Nc6nccs6)c6ncn8c6CCC8)C7)cc4)C5)CC3)c(F)c2)C(=O)N1 (some centres unmarked)"
  value: 8.30
